# Assay method text: Plasma protein binding (equilibrium dialysis), rat
# Type: in vitro ADME
# Condition set: plasma (undiluted, freshly thawed), PPB assay recovery
Measured metric: recovery (%)

Compound	Scale unit	recovery
CCC1CN(c2cc(CC(C)C)cc(F)c2-c2nn[nH]n2)CCN1Cc1cccnn1 (centres unmarked)	%	96
CC(C)Cc1cc(F)c(-c2nn[nH]n2)c(N2CCN(Cc3cccnn3)C(C)C2)c1 (centres unmarked)	%	100
CC(C)Cc1ccc(-c2nn[nH]n2)c(N2CCN(Cc3nc4ccccc4c(=O)[nH]3)CC2)c1	%	84
CCC1CN(Cc2cccnn2)CCN1c1cc(CC(C)C)cc(F)c1-c1nn[nH]n1 (centres unmarked)	%	96
CC(C)Cc1cc(F)c(-c2nn[nH]n2)c(N2CCN(Cc3ccccn3)[C@@H](C)C2)c1	%	98
CC(C)Cc1cc(F)c(-c2nn[nH]n2)c(N2CC(C)N(Cc3cccnn3)CC2C)c1 (centres unmarked)	%	92
CC(C)Cc1cc(F)c(-c2nn[nH]n2)c(N2CCN(Cc3cccnn3)[C@@H](C)C2)c1	%	90
CC(C)Cc1ccc(-c2nn[nH]n2)c(N2CCN(Cc3cccnn3)CC2)c1	%	105
